Cited source: ChEMBL document CHEMBL5107945

test_details: Inhibition of ConA-induced IL-4 secretion in BALB/c mouse splenocyte at 10 uM incubated for 48 hrs by ELISA relative to control
Type: functional
measured_quantity: inhibition at 10 µM

Please give inhibition at 10 µM, item by item, for the list that follows.
1. COc1c(OCc2ccccc2)cc2c(c1OCc1ccccc1)[C@@H]1O[C@@H]3CO[C@@H](c4ccccc4)O[C@H]3[C@H](N)[C@H]1OC2=O
2. C[C@H]1C[C@H]2[C@@H]3CCC4=CC(=O)C=C[C@]4(C)[C@@]3(F)[C@@H](O)C[C@]2(C)[C@@]1(O)C(=O)CO
3. COc1c(OCc2ccccc2)cc2c(c1OCc1ccccc1)[C@@H]1O[C@@H]3CO[C@@H](c4ccccc4)O[C@H]3[C@H](O)[C@H]1OC2=O
4. CCCCCCCOc1cc2c(c(OCCCCCCC)c1OC)[C@@H]1O[C@H](CO)[C@@H](O)[C@H](O)[C@H]1OC2=O

["8.7%", "96.9%", "76.9%", "98.6%"]
